protein stability index values, listed per item
B1: NETO1 (parent)
chain: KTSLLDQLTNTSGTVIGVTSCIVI

Variants of: B1
assayComment: protein stability index of a GFP-peptide fusion (GPS, HEK-293T) (PSI 1-6); higher = more stable;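 also: lentivirally expressed fusions sorted by FACS into six bins by GFP to DsRed ratio, PSI derived from sequencing read proportions per bin multiplied by bin number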
measurementSetup: c terminus: a fixed tail appended
Form: value (number only, do not type unit).

MTSLLDQLTNTSGTVIGVTSCIVI; 3.4
KTSLLDQLTNTSGSVIGVTSCIVI; 1.94
KTSLLDQLTNTSGTVIGVTSCIYI; 2.66

**Q:** Look up and report measured protein stability index for this entry: KTSLLDQLTNTSGTVIGVTSCIQI
**A:** 2.87

**Q:** Look up and report measured protein stability index for this entry: KTSLLDQLTITSGTVIGVTSCIVI
**A:** 3.08

**Q:** Look up and report measured protein stability index for this entry: KTSLLDQLTNTSGTVPGVTSCIVI
**A:** 2.76

**Q:** Look up and report measured protein stability index for this entry: KTSLLDQLTNTSGTVIGVTSCIVY
**A:** 2.55

**Q:** Look up and report measured protein stability index for this entry: KTSLLDQLTNTSGTVICVTSCIVI
**A:** 3.42

**Q:** Look up and report measured protein stability index for this entry: KTSLLDQLLNTSGTVIGVTSCIVI
**A:** 3.09

**Q:** Look up and report measured protein stability index for this entry: KTELLDQLTNTSGTVIGVTSCIVI
**A:** 2.86

**Q:** Look up and report measured protein stability index for this entry: KFSLLDQLTNTSGTVIGVTSCIVI
**A:** 3.71

**Q:** Look up and report measured protein stability index for this entry: KTSLLDQLTNTSGTVIGVTGCIVI
**A:** 2.14

**Q:** Look up and report measured protein stability index for this entry: KTSLLDQLTNTSGTVITVTSCIVI
**A:** 3.32

**Q:** Look up and report measured protein stability index for this entry: KTSLPDQLTNTSGTVIGVTSCIVI
**A:** 2.45

**Q:** Look up and report measured protein stability index for this entry: KTSLLDQLTNTSITVIGVTSCIVI
**A:** 2.57

**Q:** Look up and report measured protein stability index for this entry: KTSLLDQETNTSGTVIGVTSCIVI
**A:** 2.35

**Q:** Look up and report measured protein stability index for this entry: KTSLLDQLTNTSGTVIGVTSCIVP
**A:** 2.33

**Q:** Look up and report measured protein stability index for this entry: KTSLLDQLTNTSGTVIGVTSDIVI
**A:** 2.31

**Q:** Look up and report measured protein stability index for this entry: KTSLLDQLTNTSGTVIGVQSCIVI
**A:** 3.55

**Q:** Look up and report measured protein stability index for this entry: KTWLLDQLTNTSGTVIGVTSCIVI
**A:** 2.56

**Q:** Look up and report measured protein stability index for this entry: KTSLLDQLTNTGGTVIGVTSCIVI
**A:** 3.53

**Q:** Look up and report measured protein stability index for this entry: KYSLLDQLTNTSGTVIGVTSCIVI
**A:** 3.38
